experiment: Intrinsic clearance in human liver microsomes; type: ADME, Microsome
Measured metric: microsomal CLint (µL/min/mg)
Give your result in µL/min/mg as a bare value.

Query: Could you share which microsomal CLint value was measured for CC(C)[C@H](C[C@H](O)[C@H](COCc1ccccc1)NC(=O)c1cc(C(=O)N[C@H](C)c2ccccc2)cc(N(C)S(C)(=O)=O)c1)C(=O)N[C@H](C(=O)NCc1ccccc1)C(C)C ?
Reply: 260

###

molecular target: Renin (Homo sapiens, UniProt P00797); test: Inhibition of human plasma renin; assay type: cell-free
Sequence (P00797 whole entry): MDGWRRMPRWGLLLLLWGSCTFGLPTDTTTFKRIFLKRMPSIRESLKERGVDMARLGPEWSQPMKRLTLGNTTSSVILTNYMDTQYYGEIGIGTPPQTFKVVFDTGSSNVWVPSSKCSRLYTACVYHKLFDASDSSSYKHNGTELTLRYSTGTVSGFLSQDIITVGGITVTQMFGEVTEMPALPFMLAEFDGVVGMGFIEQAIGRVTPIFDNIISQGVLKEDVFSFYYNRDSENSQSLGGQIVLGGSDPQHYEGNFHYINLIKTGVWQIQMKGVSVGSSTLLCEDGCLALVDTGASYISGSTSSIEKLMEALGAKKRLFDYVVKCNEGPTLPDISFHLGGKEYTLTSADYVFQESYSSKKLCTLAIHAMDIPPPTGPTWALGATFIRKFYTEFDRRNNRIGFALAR
Measured metric: IC50 (nM)
# value in nM; strip the unit string

Query: Returns the measured IC50 for the input compound. Input: CC(C)CNC(=O)[C@@H](C[C@H](O)[C@@H]1COCc2cccc(c2)C(c2ccccc2)NC(=O)c2cc(cc(N(C)S(C)(=O)=O)c2)C(=O)N1)C(C)C (stereo partly specified)
Reply: 56

###

biological target: Beta-secretase 1 (Homo sapiens, UniProt P56817)
Sequence (P56817 whole entry): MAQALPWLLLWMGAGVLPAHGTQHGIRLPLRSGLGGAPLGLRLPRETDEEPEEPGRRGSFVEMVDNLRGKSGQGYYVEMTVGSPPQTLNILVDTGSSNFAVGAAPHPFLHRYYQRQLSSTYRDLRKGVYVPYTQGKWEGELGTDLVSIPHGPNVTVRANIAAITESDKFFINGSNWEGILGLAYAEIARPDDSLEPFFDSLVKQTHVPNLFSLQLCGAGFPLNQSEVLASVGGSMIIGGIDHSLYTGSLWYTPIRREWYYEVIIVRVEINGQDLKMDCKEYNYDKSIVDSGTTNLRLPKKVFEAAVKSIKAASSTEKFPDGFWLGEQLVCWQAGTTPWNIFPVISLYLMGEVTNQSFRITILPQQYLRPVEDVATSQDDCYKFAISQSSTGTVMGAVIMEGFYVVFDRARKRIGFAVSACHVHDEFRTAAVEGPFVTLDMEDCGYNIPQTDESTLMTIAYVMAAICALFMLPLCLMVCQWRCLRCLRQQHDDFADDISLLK
Listed next: entries and their corresponding pIC50.
Give only the number. pIC50 is defined as minus log10 of concentration in molar units.

Compound | System tested | Measured metric | Reading
CC(C)CNC(=O)[C@@H](C[C@H](O)[C@@H]1COCc2cccc(c2)C(c2ccccc2)NC(=O)c2cc(cc(N(C)S(C)(=O)=O)c2)C(=O)N1)C(C)C (some centres undefined) | Beta-secretase 1 (Homo sapiens, UniProt P56817) | pIC50 | 5.43

Next up:
Query: # returns recorded pIC50 (system: Beta-secretase 1 (Homo sapiens, UniProt P56817)) for CC(C)[C@H](C[C@H](O)[C@H](COCc1ccccc1)NC(=O)c1cc(C(=O)N[C@H](C)c2ccccc2)cc(N(C)S(C)(=O)=O)c1)C(=O)N[C@H](C(=O)NCc1ccccc1)C(C)C
Reply: 7.52

Values were extracted from ChEMBL document CHEMBL1641535.
